Assay summary: Terminal half life in Sprague-Dawley rat at 2.5 mg/kg, iv up to 6 hrs
Assay type: ADME, organism-based
Set-up: dose 2.5 mg/kg, route intravenous
Condition notes: in vivo, read-out: beta t1/2 (converted)

{"Chem smiles": "Nc1ccccc1NC(=O)c1ccc(CNc2nccc(-c3ccn[nH]3)n2)cc1", "half-life": "1.2 h"}

###

Test target: Histone deacetylase 1 (Homo sapiens)
Sequence (Q13547 whole entry): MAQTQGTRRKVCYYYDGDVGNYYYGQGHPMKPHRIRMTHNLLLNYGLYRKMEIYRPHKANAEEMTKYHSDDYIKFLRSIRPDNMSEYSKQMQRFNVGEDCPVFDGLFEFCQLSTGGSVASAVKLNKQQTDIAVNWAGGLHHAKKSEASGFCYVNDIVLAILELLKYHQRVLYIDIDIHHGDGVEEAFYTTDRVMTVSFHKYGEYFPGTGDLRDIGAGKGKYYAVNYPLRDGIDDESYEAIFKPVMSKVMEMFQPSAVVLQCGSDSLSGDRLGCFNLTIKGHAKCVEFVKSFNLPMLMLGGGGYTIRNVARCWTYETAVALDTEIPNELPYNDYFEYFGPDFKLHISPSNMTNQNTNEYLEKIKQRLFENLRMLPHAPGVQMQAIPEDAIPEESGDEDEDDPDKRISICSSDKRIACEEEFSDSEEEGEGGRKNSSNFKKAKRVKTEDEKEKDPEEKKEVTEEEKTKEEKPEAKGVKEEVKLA
Assay summary: Inhibition of human recombinant HDAC1

{"Chem smiles": "Nc1ccccc1NC(=O)/C=C/c1ccc(CNc2nccc(-c3cccnc3)n2)cc1", "Unit of measurement": "nM", "IC50": 1200}
{"Chem smiles": "CSc1ccc(-c2ccnc(NCc3ccc(C(=O)Nc4ccccc4N)cc3)n2)cn1", "Unit of measurement": "nM", "IC50": 90}
{"Chem smiles": "Nc1ccccc1NC(=O)c1ccc(CNc2nccc(-c3ccc(C(=O)N4CCOCC4)nc3)n2)cc1", "Unit of measurement": "nM", "IC50": 250}
{"Chem smiles": "CSc1nc(NCc2ccc(C(=O)Nc3ccccc3N)cc2)cc(-c2cccnc2)n1", "Unit of measurement": "nM", "IC50": 250}
{"Chem smiles": "Nc1ccccc1NC(=O)c1ccc(CNc2ccnc(-c3cccnc3)n2)cc1", "Unit of measurement": "nM", "IC50": 200}
{"Chem smiles": "Nc1ccccc1NC(=O)c1ccc(CNc2nccc(-c3cc(CO)no3)n2)cc1", "Unit of measurement": "nM", "IC50": 210}
{"Chem smiles": "Nc1ccccc1NC(=O)c1ccc(CNc2nccc(-c3nccs3)n2)cc1", "Unit of measurement": "nM", "IC50": 140}
{"Chem smiles": "Nc1ccccc1NC(=O)c1ccc(CNc2nccc(-c3cnccn3)n2)cc1", "Unit of measurement": "nM", "IC50": 190}
{"Chem smiles": "Nc1ccccc1NC(=O)c1ccc(CNc2nccc(-c3ccn[nH]3)n2)cc1", "Unit of measurement": "nM", "IC50": 140}
{"Chem smiles": "CC(C)(O)c1ccc(-c2ccnc(NCc3ccc(C(=O)Nc4ccccc4N)cc3)n2)cn1", "Unit of measurement": "nM", "IC50": 230}
{"Chem smiles": "Nc1ccccc1NC(=O)c1ccc(CNc2nccc(-c3ccc(OCCN4CCOCC4)cc3)n2)cc1", "Unit of measurement": "nM", "IC50": 80}
{"Chem smiles": "Nc1ccccc1NC(=O)c1ccc(Nc2nccc(-c3cccnc3)n2)cc1", "Unit of measurement": "nM", "IC50": 2000}
{"Chem smiles": "Nc1ccccc1NC(=O)c1ccc(CNc2cccc(-c3cccnc3)n2)cc1", "Unit of measurement": "nM", "IC50": 180}
{"Chem smiles": "CN(C)C(=O)c1ccc(-c2ccnc(NCc3ccc(C(=O)Nc4ccccc4N)cc3)n2)cn1", "Unit of measurement": "nM", "IC50": 420}
{"Chem smiles": "Nc1ccccc1NC(=O)c1ccc(CNc2cncc(-c3cccnc3)n2)cc1", "Unit of measurement": "nM", "IC50": 110}
{"Chem smiles": "CN(C)CCOc1cccc(-c2ccnc(NCc3ccc(C(=O)Nc4ccccc4N)cc3)n2)c1", "Unit of measurement": "nM", "IC50": 130}
{"Chem smiles": "N#Cc1ccc(-c2ccnc(NCc3ccc(C(=O)Nc4ccccc4N)cc3)n2)cn1", "Unit of measurement": "nM", "IC50": 160}
